pKi: −log10 of the molar value.
For human H3 receptor (Homo sapiens, UniProt Q9Y5N1), measured pKi is reported for the entries below.

- compound: "CC(=O)N1CCN(CCCOc2ccc(C(=O)CN3CCOCC3)cc2)CC1"
  result.value: "< 6.00"
- compound: "CC(C)C(=O)N1CCN(CC(=O)c2ccc(OCCCN3CCC[C@H]3C)cc2)CC1"
  result.value: "7.00 to 10.00"
- compound: "C[C@@H]1CCCN1CCCOc1ccc(C(=O)CN2CCN(C(=O)OC(C)(C)C)CC2)cc1"
  result.value: "7.00 to 10.00"
- compound: "C[C@@H]1CCCN1CCCOc1ccc(/C(CN2CCOCC2)=N/OC2CCCCC2)cc1"
  result.value: "7.00 to 10.00"

Measured pKi (human H3 receptor (Homo sapiens, UniProt Q9Y5N1)), entry CC1CCCN1CCCOc1ccc(C(CN2CCOCC2)=NOC(C)(C)C)cc1 (racemic) : 7.00 to 10.00

Measured pKi (human H3 receptor (Homo sapiens, UniProt Q9Y5N1)), entry CC(=O)N1CCN(C(C)C(=O)c2ccc(OCCCN3CCCCC3)cc2)CC1 (centres unmarked) : 7.00 to 10.00

Measured pKi (human H3 receptor (Homo sapiens, UniProt Q9Y5N1)), entry C[C@@H]1CCCN1CCCOc1ccc(C(=O)CN2CCN(C(=O)c3ccc(F)cc3)CC2)cc1 : 7.00 to 10.00

Measured pKi (human H3 receptor (Homo sapiens, UniProt Q9Y5N1)), entry CC(C(=O)c1ccc(OCCCN2CCOCC2)cc1)N1CCOCC1 (centres unmarked) : < 6.00

----------
target.or.test.system: rat histamine H3 receptor (Rattus norvegicus, UniProt Q9QYN8)
Construct: encoding the entire 445-amino-acid rat histamine H3 receptor; expressed in transfected cells
Sequence (Q9QYN8 whole entry): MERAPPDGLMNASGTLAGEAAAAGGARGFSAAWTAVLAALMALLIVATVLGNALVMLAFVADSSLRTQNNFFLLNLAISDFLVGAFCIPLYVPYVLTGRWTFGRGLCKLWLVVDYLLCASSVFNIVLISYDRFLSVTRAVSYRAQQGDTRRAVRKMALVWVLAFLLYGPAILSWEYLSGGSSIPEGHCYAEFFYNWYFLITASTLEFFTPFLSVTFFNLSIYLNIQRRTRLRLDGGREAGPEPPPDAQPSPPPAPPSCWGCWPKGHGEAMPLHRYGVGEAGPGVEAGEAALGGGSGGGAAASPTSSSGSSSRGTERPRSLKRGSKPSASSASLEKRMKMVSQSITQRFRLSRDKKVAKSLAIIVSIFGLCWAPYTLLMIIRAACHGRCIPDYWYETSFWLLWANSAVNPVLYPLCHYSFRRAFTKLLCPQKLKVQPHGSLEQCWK
experiment: Rat H3 radioligand binding ([3H]-N-alpha-methylhistamine, SPA)
stated.conditions: membranes of CHO-A3 cells expressing rat H3; [3H]-N-alpha-methylhistamine; read-out: Rat H3 Ki
measured.endpoint: Ki

Use the examples below as a reference point.
- compound: "COC(=O)N1CCN(CC(=O)c2ccc(OCCCN3CCC[C@H]3C)c(Cl)c2)CC1 [Example 132]"
  Ki: "101 to 500 nM"
- compound: "COC(=O)N1CCN(CC(=O)c2ccc(OCCCN3CCC[C@H]3C)c(C)c2)CC1 [Example 137]"
  Ki: "0.1 to 100 nM"
- compound: "O=C(CN1CCOCC1)c1ccc(OCCCN2CCCC2=O)cc1 [Example 67]"
  Ki: "> 1000 nM"
- compound: "C[C@@H]1CCCN1CCCOc1ccc(C(=O)CN2CCC(F)(F)CC2)cc1 [Example 44]"
  Ki: "0.1 to 100 nM"
- compound: "C[C@@H]1CCCN1CCCOc1ccc(/C(CN2CCOC(c3ccccc3)C2)=N/OC(C)(C)C)cc1 (some centres unmarked) [Example 168]"
  Ki: "101 to 500 nM"
- compound: "C[C@@H]1CCCN1CCCOc1ccc(C(=O)CN2CCC(F)(F)CC2)cc1F [Example 141]"
  Ki: "101 to 500 nM"
- compound: "CC1CCCC(C)N1CC(=O)c1ccc(OCCCN2CCC[C@H]2C)cc1 (some centres unmarked) [Example 61]"
  Ki: "0.1 to 100 nM"
- compound: "C[C@@H]1CN(CC(=O)c2ccc(OCCCN3CCC[C@H]3C)cc2)C[C@H](C)O1 [Example 38]"
  Ki: "0.1 to 100 nM"
- compound: "CC1(C)CCCN1CCCOc1ccc(C(=O)CN2CCOCC2)cc1 [Example 88]"
  Ki: "> 1000 nM"
- compound: "CC(=O)N1CCN(CC(=O)c2ccc(OCCCN3CCC[C@H]3C)c(C)c2)CC1 [Example 156]"
  Ki: "0.1 to 100 nM"

For Cc1cc(C(=O)CN2CCN(c3ncccn3)CC2)ccc1OCCCN1CCC[C@H]1C [Example 130] the compound record lists Ki as 0.1 to 100 nM

For C[C@@H]1CCCN1CCCOc1ccc(C(=O)CN2CCC(F)(F)C2)cc1F [Example 139] the compound record lists Ki as 0.1 to 100 nM

----------
For human H3 receptor (Homo sapiens), measured Ki is reported for the entries below.

Use the examples below as a reference point.
- compound: "C[C@@H]1CCCN1CCCOc1ccc(C(=O)CN2CCN(c3ccc(C(F)(F)F)cc3)CC2)cc1"
  target.or.test.system: "human H3 receptor (Homo sapiens)"
  Ki: "0.0001 to 0.1 µM"
- compound: "CC(=O)N1CCN(CC(=O)c2ccc(OCCCN3CCC[C@H]3C)c(C)c2)CC1"
  target.or.test.system: "human H3 receptor (Homo sapiens)"
  Ki: "0.0001 to 0.1 µM"
- compound: "CC(C(=O)c1ccc(OCCCN2CCCC2)cc1)N1CCCCC1 (centres unmarked)"
  target.or.test.system: "human H3 receptor (Homo sapiens)"
  Ki: "0.0001 to 0.1 µM"
- compound: "CC(C(=O)c1ccc(OCCCN2CCC(F)(F)C2)cc1)N1CCOCC1 (centres unmarked)"
  target.or.test.system: "human H3 receptor (Homo sapiens)"
  Ki: "> 1 µM"

Measured Ki (human H3 receptor (Homo sapiens)), entry CC(C(=O)c1ccc(OCCCN2CCCCC2)cc1)N1CCN(c2ccccc2)CC1 (centres unmarked) : 0.0001 to 0.1 µM

Measured Ki (human H3 receptor (Homo sapiens)), entry Cc1cc(C)cc(C(=O)N2CCN(CC(=O)c3ccc(OCCCN4CCC[C@H]4C)cc3)CC2)c1 : 0.0001 to 0.1 µM

Measured Ki (human H3 receptor (Homo sapiens)), entry C[C@@H]1CCCN1CCCOc1ccc(C(=O)CN2CCO[C@H](c3ccccc3)C2)cc1 : 0.0001 to 0.1 µM

Measured Ki (human H3 receptor (Homo sapiens)), entry CC(C(=O)c1ccc(OCCCN2CCC[C@@H]2C)cc1)N1CCCCC1 (some centres unmarked) : 0.0001 to 0.1 µM

----------
Counter-ions that a name gives are not always drawn.
measured.endpoint: melting point

Use the examples below as a reference point.
- compound: "C[C@@H]1CCCN1CCCOc1ccc(C(=O)CN2CCN(C(=O)c3ccc(C(F)(F)F)cc3)CC2)cc1 [Example 92]"
  melting point: "227 to 230 °C"
- compound: "C[C@@H]1CCCN1CCCOc1ccc(C(=O)CN2CCN(c3ccccn3)CC2)cc1 [Example 116]"
  melting point: "239 to 242 °C"
- compound: "CC(=O)N1CCN(CCCOc2ccc(C(=O)CN3CCOCC3)cc2)CC1 [Example 49]"
  melting point: "247 °C"
- compound: "C[C@@H]1CCCN1CCCOc1ccc(C(=O)CN2CCCCc3ccccc32)cc1 [Example 114]"
  melting point: "90 to 96 °C"
- compound: "C[C@@H]1CCCN1CCCOc1ccc(C(=O)CN2CCCc3ccccc32)cc1 [Example 108]"
  melting point: "166 to 168 °C"

For C[C@@H]1CCCN1CCCOc1ccc(C(=O)CN2CCN(C(=O)c3ccc(Cl)c(Cl)c3)CC2)cc1 [Example 129] the compound record lists melting point as 88 to 90.5 °C

For C[C@@H]1CCCN1CCCOc1ccc(C(=O)CN2CCN(C(=O)c3ccccc3)CC2)cc1Cl [Example 113] the compound record lists melting point as 130 to 137 °C

For Cc1cc(C(=O)CN2CCC(F)(F)CC2)cc(C)c1OCCCN1CCC[C@H]1C [Example 95] the compound record lists melting point as 140 to 142 °C

For C[C@@H]1CCCN1CCCOc1c(Cl)cc(C(=O)CN2CCN(c3ccccc3)CC2)cc1Cl [Example 102] the compound record lists melting point as 168 °C

For C[C@@H]1CCCN1CCCOc1ccc(C(=O)CN2CCN(C(=O)C3CC3)CC2)cc1 [Example 89] the compound record lists melting point as 202 to 204 °C

For C[C@@H]1CCCN1CCCOc1ccc(C(=O)CN2CCN(C(=O)c3cccs3)CC2)cc1 [Example 80] the compound record lists melting point as 152 to 156 °C

For C[C@@H]1CCCN1CCCOc1ccc(C(=O)CN2CCN(c3ncccn3)CC2)cc1Cl [Example 125] the compound record lists melting point as 112 to 114 °C

For C[C@@H]1CCCN1CCCOc1ccc(C(=O)CN2CCN(C(=O)c3ccccc3)CC2)c(F)c1 (as salt: fumaric acid salt) [Example 103] the compound record lists melting point as 98 to 101 °C

For CC(C(=O)c1ccc(OCCCN2CCOCC2)cc1)N1CCOCC1 (stereo not drawn) [Example 48] the compound record lists melting point as 258 °C

For C[C@@H]1CCCN1CCCOc1ccc(C(=O)CN2CCN(c3ccccc3)CC2)cc1F [Example 143] the compound record lists melting point as 140 °C

----------
target.or.test.system: rat histamine H3 receptor (Rattus norvegicus, UniProt Q9QYN8)
Construct: encoding the entire 445-amino-acid rat histamine H3 receptor; expressed in transfected cells
experiment: Rat H3 radioligand binding ([3H]-N-alpha-methylhistamine, SPA)
stated.conditions: membranes of CHO-A3 cells expressing rat H3; [3H]-N-alpha-methylhistamine; read-out: Rat H3 Ki
pKi: −log10 of the molar value.
measured.endpoint: pKi

Use the examples below as a reference point.
- compound: "C[C@@H]1CCCN1CCCOc1ccc(C(=O)CN2CCN(c3ccccn3)CC2)cc1 [Example 116]"
  pKi: "7.00 to 10.00"
- compound: "O=C(CN1CCOCC1)c1ccc(OCCCN2CCCCC2)cc1F [Example 65]"
  pKi: "< 6.00"
- compound: "C[C@@H]1CCCN1CCCOc1ccc(C(=O)CN2CCN(C)C(=O)C2)cc1 [Example 155]"
  pKi: "7.00 to 10.00"
- compound: "C[C@@H]1CCCN1CCCOc1ccc(C(=O)CN2CCCc3ccccc32)cc1 [Example 108]"
  pKi: "7.00 to 10.00"
- compound: "C[C@@H]1CCCN1CCCOc1ccc(C(=O)CN2CCN(C(=O)c3ccc(F)cc3)CC2)cc1 [Example 101]"
  pKi: "7.00 to 10.00"
- compound: "Cc1cc(C(=O)CN2CCC(F)(F)CC2)ccc1OCCCN1CCC[C@H]1C [Example 136]"
  pKi: "6.30 to 7.00"
- compound: "Cc1cc(OCCCN2CCCCC2)ccc1C(=O)CN1CCOCC1 [Example 72]"
  pKi: "6.30 to 7.00"
- compound: "C[C@@H]1CCCN1CCCOc1ccc(C(=O)CN2CCN(C(=O)N(C)C)CC2)cc1F [Example 123]"
  pKi: "7.00 to 10.00"

Now turn to the next compound.
For C[C@@H]1CCCN1CCCOc1ccc(C(=O)CN2CCN(c3ccccc3)CC2)cc1 [Example 91] the compound record lists pKi as 7.00 to 10.00

The reported measurements were obtained from patent US20140296212A1.
